For each of the compounds below, state its DC50.
experimental target: Protein cereblon/Androgen receptor (Homo sapiens, UniProt P10275+Q96SW2)
Sequence (P10275 whole entry): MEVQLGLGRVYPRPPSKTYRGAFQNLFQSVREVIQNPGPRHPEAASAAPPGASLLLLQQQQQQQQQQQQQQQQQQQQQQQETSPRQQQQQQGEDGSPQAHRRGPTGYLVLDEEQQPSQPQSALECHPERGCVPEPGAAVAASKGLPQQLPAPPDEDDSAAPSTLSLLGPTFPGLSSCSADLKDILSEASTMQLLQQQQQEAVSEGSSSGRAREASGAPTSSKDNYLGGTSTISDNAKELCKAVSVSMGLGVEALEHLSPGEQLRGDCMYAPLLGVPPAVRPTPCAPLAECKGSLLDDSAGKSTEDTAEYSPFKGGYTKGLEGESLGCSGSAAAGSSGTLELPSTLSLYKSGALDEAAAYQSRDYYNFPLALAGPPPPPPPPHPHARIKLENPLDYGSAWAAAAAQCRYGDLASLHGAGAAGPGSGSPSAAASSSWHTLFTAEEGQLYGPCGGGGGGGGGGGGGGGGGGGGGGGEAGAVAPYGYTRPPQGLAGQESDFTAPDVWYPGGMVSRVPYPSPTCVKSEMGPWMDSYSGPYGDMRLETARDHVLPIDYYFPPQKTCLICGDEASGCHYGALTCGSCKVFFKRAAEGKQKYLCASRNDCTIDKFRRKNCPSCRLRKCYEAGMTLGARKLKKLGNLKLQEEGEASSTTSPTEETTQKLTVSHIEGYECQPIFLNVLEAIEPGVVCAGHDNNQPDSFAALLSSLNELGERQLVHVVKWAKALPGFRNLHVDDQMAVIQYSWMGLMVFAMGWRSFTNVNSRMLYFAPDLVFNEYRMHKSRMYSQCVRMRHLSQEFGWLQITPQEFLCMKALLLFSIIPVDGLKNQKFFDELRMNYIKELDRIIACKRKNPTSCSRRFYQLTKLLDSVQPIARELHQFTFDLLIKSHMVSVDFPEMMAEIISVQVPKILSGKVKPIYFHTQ
Sequence (Q96SW2 whole entry): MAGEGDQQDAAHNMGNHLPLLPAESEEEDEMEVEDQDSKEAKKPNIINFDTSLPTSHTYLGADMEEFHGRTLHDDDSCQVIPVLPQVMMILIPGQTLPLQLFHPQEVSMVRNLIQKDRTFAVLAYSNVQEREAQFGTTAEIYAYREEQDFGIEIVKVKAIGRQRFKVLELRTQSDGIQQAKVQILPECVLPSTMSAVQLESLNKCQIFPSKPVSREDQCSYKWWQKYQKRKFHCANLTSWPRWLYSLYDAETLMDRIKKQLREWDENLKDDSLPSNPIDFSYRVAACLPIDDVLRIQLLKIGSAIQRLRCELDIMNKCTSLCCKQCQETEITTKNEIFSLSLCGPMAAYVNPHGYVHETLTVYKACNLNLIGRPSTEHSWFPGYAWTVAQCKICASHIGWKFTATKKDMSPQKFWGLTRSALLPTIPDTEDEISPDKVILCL
test summary: Protac activity at E3 ubiquitin ligase/androgen receptor in human LNCaP cells assessed as induction of androgen receptor degradation incubated for overnight by sandwich ELISA
Format: cell-based
Give me the value, and tack the unit on after it.

Kindly give each listed record's DC50.
1. CN(C1CCN(C(=O)c2ccc(Nc3ncnc4c3CCN(c3ccc(C#N)c(Cl)c3)C4)nc2F)CC1)C1CCN(c2ccc3c(c2)C(=O)N(C2CCC(=O)NC2=O)C3=O)CC1 (stereo unspecified)
2. N#Cc1ccc(N2CCc3c(ncnc3Nc3ccc(C(=O)NC4CCN(CC5CCN(c6ccc7c(c6)C(=O)N(C6CCC(=O)NC6=O)C7=O)CC5)CC4)c(F)n3)C2)cc1Cl (stereo unspecified)
3. N#Cc1ccc(N2CCc3c(ncnc3Nc3ccc(C(=O)NCCCCCCN4CCN(c5ccc6c(c5)C(=O)N(C5CCC(=O)NC5=O)C6=O)CC4)c(F)n3)C2)cc1Cl (stereo unspecified)
4. N#Cc1ccc(N2CCc3c(ncnc3Nc3ccc(C(=O)N[C@H]4CC[C@H](CN5CCN(c6cc7c(cc6F)C(=O)N(C6CCC(=O)NC6=O)C7=O)CC5)CC4)c(F)n3)C2)cc1Cl (stereo partly specified)
5. N#Cc1ccc(N2CCc3c(ncnc3Nc3ccc(C(=O)NCCC(=O)N4CCC(CN5CCN(c6cc7c(cc6F)C(=O)N(C6CCC(=O)NC6=O)C7=O)CC5)CC4)c(F)n3)C2)cc1Cl (stereo unspecified)

Result block:
1. 4.82 nM
2. 8.5 nM
3. 3 nM
4. 9.2 nM
5. 7.7 nM

Note to self: DC50 of CN(C1CCN(C(=O)c2ccc(Nc3ncnc4c3CCN(c3ccc(C#N)c(Cl)c3)C4)nc2F)CC1)C1CCN(c2cc3c(cc2F)C(=O)N(C2CCC(=O)NC2=O)C3=O)CC1 (stereo unspecified) with Protein cereblon/Androgen receptor (Homo sapiens, UniProt P10275+Q96SW2) was 16.6 nM

###

For each of the molecules below, state its DC50.
experimental target: Protein cereblon/Androgen receptor (Homo sapiens, UniProt P10275+Q96SW2)
test summary: Protac activity at E3 ubiquitin ligase/androgen receptor in human LNCaP cells assessed as induction of androgen receptor degradation incubated for overnight by sandwich ELISA
Format: cell-based
Answers are plain numbers, in nM.

- molecule: "N#Cc1ccc(N2CCc3c(ncnc3Nc3ccc(C(=O)N4CCC(CN5CCN(c6ccc7c(c6)C(=O)N(C6CCC(=O)NC6=O)C7=O)CC5)CC4)c(F)n3)C2)cc1Cl (stereo unspecified)"
  measurement kind: "DC50"
  endpoint value: 3.2
- molecule: "C[C@@H]1CN(c2ccc3c(c2)C(=O)N(C2CCC(=O)NC2=O)C3=O)CCN1C[C@H]1CC[C@H](NC(=O)c2ccc(Nc3ncnc4c3CCN(c3ccc(C#N)c(Cl)c3)C4)nc2F)CC1 (stereo partly specified)"
  measurement kind: "DC50"
  endpoint value: 5.3
- molecule: "C[C@H]1CN(c2ccc3c(c2)C(=O)N(C2CCC(=O)NC2=O)C3=O)CCN1C[C@H]1CC[C@H](NC(=O)c2ccc(Nc3ncnc4c3CCN(c3ccc(C#N)c(Cl)c3)C4)nc2F)CC1 (stereo partly specified)"
  measurement kind: "DC50"
  endpoint value: 9.1
- molecule: "N#Cc1ccc(N2CCc3c(ncnc3Nc3ccc(C(=O)NCC(=O)N4CCC(CN5CCN(c6cc7c(cc6F)C(=O)N(C6CCC(=O)NC6=O)C7=O)CC5)CC4)c(F)n3)C2)cc1Cl (stereo unspecified)"
  measurement kind: "DC50"
  endpoint value: 2.8
- molecule: "N#Cc1ccc(N2CCc3c(ncnc3Nc3ccc(C(=O)N4CCC(CN5CCN(c6cc7c(cc6F)C(=O)N(C6CCC(=O)NC6=O)C7=O)CC5)CC4)c(F)n3)C2)cc1Cl (stereo unspecified)"
  measurement kind: "DC50"
  endpoint value: 11.6

Would you kindly look at the next entry?
What the record says about N#Cc1ccc(N2CCc3c(ncnc3Nc3ccc(C(=O)NC4CCN(C5CCN(c6ccc7c(c6)C(=O)N(C6CCC(=O)NC6=O)C7=O)CC5)CC4)c(F)n3)C2)cc1Cl (stereo unspecified) : DC50 is 4.9

FYI, the data here is from ChEMBL document CHEMBL4825772.
